Test system: α1 adrenergic receptor
Assay: in vitro binding to alpha1-adrenergic receptors (3H-WB4101 or 3H-prazosin displacement), rat brain homogenates
Details: compd. conc. 10^-6 M; ligand 3H-WB4101 1.6 nM; rat brain homogenates
experimental endpoint: % Inhibition of the specific binding for α1 receptor, Ligand WB (%)

[[record]]
molecule = "c1ccc(C(Cc2c[nH]cn2)c2cccnc2)cc1 (stereo not shown)"
recorded_value = 7

[[record]]
molecule = "c1ccc(C(Cc2c[nH]cn2)c2ccncc2)cc1 (stereo not shown)"
recorded_value = 2

[[record]]
molecule = "c1ccc(C(Cc2c[nH]cn2)c2ccccc2)cc1 [CC, reference compound]"
recorded_value = 21

[[record]]
molecule = "c1ccc(C(Cc2c[nH]cn2)c2ccccn2)cc1 (stereo not shown)"
recorded_value = 0


====

Experiment: acute toxicity after oral administration to mice (LD50)
Conditions: mouse, in vivo, mortality recorded for 15 days
experimental endpoint: LD50 at 360 h (mg/kg)

[[record]]
compound = "c1ccc(C(Cc2c[nH]cn2)c2ccccn2)cc1 (centres unmarked)"
units_of_measure = "mg/kg"
recorded_value = 130

